We begin with a simple list: items and their reported Residual activity.
- System: alkaline phosphatase
- assay notes: Residual alkaline phosphatase activity after storage in frozen form (Test Example 2)
- Assay type: biochemical, calf
- run parameters: sugar 50 mM; stored frozen at -20° C. for 6 days
Give the value in % but do not write % after it.

The following compounds have reported results that may help.
compound	Residual activity, %
C[C@H]1O[C@H](O[C@H]2O[C@H](CO)[C@@H](O)[C@H](O)[C@H]2O)[C@H](O)[C@@H](O)[C@H]1O [Glucosyl (α, 1-1) D-fucose, glucosyl (α, 1-1)D-fucose]	36.3
C[C@@H]1OC(O)[C@@H](O)[C@H](O)[C@@H]1O[C@H]1O[C@H](CO)[C@@H](O)[C@H](O)[C@H]1O (stereo partly drawn) [Glucosyl (α, 1-4) L-fucose, glucosyl (α, 1-4)L-fucose]	76.0
OC[C@H]1O[C@H](O[C@H]2[C@H](O)[C@@H](O)[C@H](O)O[C@@H]2CO)[C@H](O)[C@@H](O)[C@@H]1O [Maltose, glucosyl(α,1-4)D-glucose]	20.0

We next turn to a different compound, shown below.
Task item: Param readout = Residual activity; param system = alkaline phosphatase; param query = OC[C@H]1O[C@H](O[C@H]2O[C@H](CO)[C@@H](O)[C@H](O)[C@H]2O)[C@H](O)[C@@H](O)[C@@H]1O [Trehalose, glucosyl(α,1-1)D-glucose] ; response: value
Reply: 26.4
